Source: ChEMBL document CHEMBL1134780

target: NAD(P)H dehydrogenase [quinone] 1 (Homo sapiens); assay: NADH oxidation is used as a measure metabolism since 1 mol of NADH is oxidized for each mole of compound that is reduced; type: functional
# note: exactly 3 µM/min/mg is not below, so it is no (0); use yes (1) for Metabolism strictly under it

Compound | Category label
COC1=CC(=O)c2c(c(CO)c(C)n2-c2ccc(F)cc2)C1=O | no (0)
COC1=CC(=O)c2c(c(COc3ccccc3)c(C)n2C)C1=O | yes (1)
COC(=O)c1c2c(n(C)c1C)C(=O)C(C)=C(OC)C2=O | no (0)
COC1=CC(=O)c2[nH]c(C)c(C(C)O)c2C1=O (configuration not stated) | no (0)
COC1=CC(=O)c2c(c(COc3ccc([N+](=O)[O-])cc3OC)c(C)n2C)C1=O | yes (1)

input: Record COC1=C(C)C(=O)c2c(c(CO)c(C)n2C)C1=O : is its Metabolism strictly below 3 µM/min/mg?
output: no (0)

input: Record CCOC(=O)CNC(=O)OCc1c2c(n(C)c1C)C(=O)C=C(OC)C2=O : is its Metabolism strictly below 3 µM/min/mg?
output: yes (1)

input: Record CCc1c(CO)c2c(n1Cc1ccccc1)C(=O)C=C(OC)C2=O : is its Metabolism strictly below 3 µM/min/mg?
output: yes (1)

input: Record COC1=CC(=O)c2c(c(CO)c(C)n2C2CC2)C1=O : is its Metabolism strictly below 3 µM/min/mg?
output: no (0)

input: Record COC1=CC(=O)c2c(c(CO)cn2C)C1=O : is its Metabolism strictly below 3 µM/min/mg?
output: no (0)

input: Record CCOC(=O)c1c2c(n(-c3ccc(F)cc3)c1C)C(=O)C=C(OC)C2=O : is its Metabolism strictly below 3 µM/min/mg?
output: no (0)

###

biological target: NAD(P)H dehydrogenase [quinone] 1 (Homo sapiens); experiment: NADH oxidation is used as a measure metabolism since 1 mol of NADH is oxidized for each mole of compound that is reduced; assay type: functional
# note: exactly 2 µM/min/mg is not below, so it is Not satisfied; use Satisfied for Metabolism strictly under it

Please review the following examples before continuing.
Molecule | Category label
COC1=C(C)C(=O)c2c(c(CO)c(C)n2-c2ccccc2)C1=O | Not satisfied
Cc1c(C(C)O)c2c(n1C)C(=O)C=C(N1CCOCC1)C2=O (stereo unspecified) | Satisfied
CCCn1c(C)c(CO)c2c1C(=O)C(C)=C(OC)C2=O | Satisfied

input: Record CCOC(=O)c1c2c(n(C)c1-c1ccc3ccccc3c1)C(=O)C=C(OC)C2=O : is its Metabolism strictly below 2 µM/min/mg?
output: Satisfied

input: Record COC1=CC(=O)c2c(c(COc3cc([N+](=O)[O-])ccc3OC)c(C)n2C)C1=O : is its Metabolism strictly below 2 µM/min/mg?
output: Satisfied

input: Record COC1=CC(=O)c2c(c(CO)c(C)n2-c2ccccc2)C1=O : is its Metabolism strictly below 2 µM/min/mg?
output: Not satisfied
